target: T1, human HER2 (human, UniProt P04626 23-1255); test: FACS CHO-HER2, 667 nM
T1 construct: also called hHER2
quantity kind: MCF
Answer as a number with no unit attached.

Query: Consider the binder 17B05 (VHH, also called HER3MS17B05; HER3MS017B05) VHH: EVQLVESGGGLVQPGGSLRLSCAASGSIGGLNAMAWYRQAPGKERELVAGIFGVGSTRYADSVKGRFTISRDIAKNTVFLQMNSLNSEDTAVYYCRMSSVTRGSSDYWGQGTQVTVSS . State its measured MCF.
Reply: 86

Query: Return value of MCF for input 21F06 (VHH, c-myc, His6-tagged form as expressed; also called 21F6; HER3MS21F06) VHH: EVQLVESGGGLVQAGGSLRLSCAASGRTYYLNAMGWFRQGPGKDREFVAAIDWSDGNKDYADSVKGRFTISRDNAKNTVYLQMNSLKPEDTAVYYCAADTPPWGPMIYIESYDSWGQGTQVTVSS , no commentary.
Reply: 229
